Collected AUC(0-t) values appear next to each entry.
experiment: Mouse pharmacokinetics after oral gavage, plasma drug concentration by LC-MS/MS (C57BL/6); assay type: in vivo, C57bl/6 mice; settings: mouse, plasma, C57BL/6, 10 mg/kg, male mice, read-out: AUC0-24
MEASURED_PARAMETER: AUC(0-t) (µM·h)

>  <SMILES_REPRESENTATION>
Cc1c(NC(=O)[C@H](CCN)NC(=O)[C@@H]2Cc3ccccc3CN2C(=O)CCC(=O)c2ccccc2)ccc(Cl)c1Cl

>  <MEASURED_PARAMETER>
AUC(0-t)

>  <VAL>
7.5

$$$$
>  <SMILES_REPRESENTATION>
Cc1cc(NC(=O)[C@H](CCNC(C)C)NC(=O)[C@@H]2Cc3ccccc3CN2C(=O)CCC(=O)c2ccccc2)ccc1Cl

>  <MEASURED_PARAMETER>
AUC(0-t)

>  <VAL>
1.2

$$$$
>  <SMILES_REPRESENTATION>
Cc1cc(NC(=O)C2(NC(=O)[C@@H]3Cc4ccccc4CN3C(=O)CCC(=O)c3ccccc3)CCNCC2)ccc1Cl

>  <MEASURED_PARAMETER>
AUC(0-t)

>  <VAL>
9

$$$$
>  <SMILES_REPRESENTATION>
Cc1cc(NC(=O)[C@H](CCCCNC(C)C)NC(=O)[C@@H]2Cc3ccccc3CN2C(=O)CCC(=O)c2ccccc2)ccc1Cl

>  <MEASURED_PARAMETER>
AUC(0-t)

>  <VAL>
0.11

$$$$
>  <SMILES_REPRESENTATION>
NCC[C@H](NC(=O)[C@@H]1Cc2ccccc2CN1C(=O)CCC(=O)c1ccccc1)C(=O)Nc1ccc(Cl)c(Cl)c1F

>  <MEASURED_PARAMETER>
AUC(0-t)

>  <VAL>
7

$$$$
>  <SMILES_REPRESENTATION>
Cc1cc(NC(=O)[C@@H](NC(=O)[C@@H]2Cc3ccccc3CN2C(=O)CCC(=O)c2ccccc2)C2CCN(C(C)C)CC2)ccc1Cl

>  <MEASURED_PARAMETER>
AUC(0-t)

>  <VAL>
2.3

$$$$
>  <SMILES_REPRESENTATION>
NCCCC[C@H](NC(=O)[C@@H]1Cc2ccccc2CN1C(=O)CCC(=O)c1ccccc1)C(=O)NCC(c1ccccc1)c1ccccc1

>  <MEASURED_PARAMETER>
AUC(0-t)

>  <VAL>
0.029

$$$$
>  <SMILES_REPRESENTATION>
Cc1cc(NC(=O)[C@H](CCN)NC(=O)[C@@H]2Cc3ccccc3CN2C(=O)CCC(=O)c2ccccc2)ccc1Cl

>  <MEASURED_PARAMETER>
AUC(0-t)

>  <VAL>
1.7

$$$$
>  <SMILES_REPRESENTATION>
Cc1cc(NC(=O)C2(NC(=O)[C@@H]3Cc4ccccc4CN3C(=O)CCC(=O)c3ccccc3)CCN(C)CC2)ccc1Cl

>  <MEASURED_PARAMETER>
AUC(0-t)

>  <VAL>
8.3

$$$$
>  <SMILES_REPRESENTATION>
Cc1cc(NC(=O)[C@H](CCN)NC(=O)[C@@H]2Cc3ccccc3CN2C(=O)CCC(=O)c2ccccc2)c(Cl)cc1Cl

>  <MEASURED_PARAMETER>
AUC(0-t)

>  <VAL>
15.1

$$$$
>  <SMILES_REPRESENTATION>
Cc1cc(NC(=O)[C@H](CCCCN)NC(=O)[C@@H]2Cc3ccccc3CN2C(=O)CCC(=O)c2ccccc2)ccc1Cl

>  <MEASURED_PARAMETER>
AUC(0-t)

>  <VAL>
0.011

$$$$

----------
Collected pEC50 values appear next to each entry.
Biological target: CXCR3 (Homo sapiens)
Construct: host or cells: CHO-K1 (cAMP Hunter CHOK1 CXCR3 Gi cell line)
Sequence (P49682 1-368): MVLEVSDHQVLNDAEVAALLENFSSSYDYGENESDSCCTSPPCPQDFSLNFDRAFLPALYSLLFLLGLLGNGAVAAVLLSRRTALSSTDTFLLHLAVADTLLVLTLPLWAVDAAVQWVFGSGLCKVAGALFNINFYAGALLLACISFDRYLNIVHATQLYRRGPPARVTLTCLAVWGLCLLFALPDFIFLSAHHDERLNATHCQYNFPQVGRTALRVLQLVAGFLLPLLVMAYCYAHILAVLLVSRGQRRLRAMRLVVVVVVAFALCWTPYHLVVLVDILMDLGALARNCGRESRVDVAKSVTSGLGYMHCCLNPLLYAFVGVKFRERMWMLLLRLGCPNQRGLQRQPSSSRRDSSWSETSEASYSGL
Experiment: CXCR3 cAMP agonist assay (cAMP Hunter CHOK1 CXCR3 Gi cell line, forskolin-stimulated, HitHunter cAMP detection)
Assay type: cell-based
Settings: cAMP Hunter CHOK1 CXCR3 Gi cells, 20 μM forskolin, 30 minutes; read-out: Activity (CXCR3 cAMP agonist assay compound EC50)
pEC50: −log10 of the molar value.
MEASURED_PARAMETER: pEC50

>  <MOLECULE>
Cc1cc(OC(F)(F)F)c(NC(=O)[C@H](CCN)NC(=O)[C@@H]2Cc3ccccc3CN2C(=O)CCC(=O)c2ccccc2)cc1Cl [Compound 14-24]

>  <VAL>
> 7.30

$$$$
>  <MOLECULE>
CC(C)C1CCCN1C(=O)CCC(=O)N1Cc2ccccc2C[C@H]1C(=O)N[C@@H](CCN)C(=O)Nc1ccc(Cl)c(Cl)c1F (stereo partly shown) [Compound 15-10]

>  <VAL>
> 7.30

$$$$
>  <MOLECULE>
Cc1cc(NC(=O)[C@H](CCN)NC(=O)[C@@H]2Cc3ccccc3CN2C(=O)CCC(=O)NCC(C)(C)C)ccc1Cl [Compound 12-91]

>  <VAL>
> 7.30

$$$$
>  <MOLECULE>
COc1cc(C)c(C)cc1NC(=O)[C@H](CCN)NC(=O)[C@@H]1Cc2ccccc2CN1C(=O)CCC(=O)c1ccccc1 [Compound 2-79]

>  <VAL>
> 7.30

$$$$
>  <MOLECULE>
CCN1CCN(C(=O)CCC(=O)N2Cc3ccccc3C[C@H]2C(=O)N[C@@H](CCN)C(=O)Nc2ccc(Cl)c(C)c2)CC1 [Compound 12-99]

>  <VAL>
6.60 to 7.30

$$$$
>  <MOLECULE>
Cc1cc(Cl)ccc1NC(=O)[C@H](CCCCN)NC(=O)[C@@H]1Cc2ccccc2CN1C(=O)CCC(=O)c1ccccc1 [Compound 1-24]

>  <VAL>
6.60 to 7.30

$$$$
>  <MOLECULE>
COc1cc(F)c(F)cc1NC(=O)[C@H](CCN)NC(=O)[C@@H]1Cc2ccccc2CN1C(=O)CCC(=O)c1ccccc1 [Compound 2-70]

>  <VAL>
6.30 to 6.60

$$$$
>  <MOLECULE>
NC12CC(CC(NC(=O)[C@@H]3Cc4ccccc4CN3C(=O)CCC(=O)c3ccccc3)C(=O)Nc3ccc(Cl)c(Cl)c3F)(C1)C2 (mixture of isomers) [Compound 22-3]

>  <VAL>
> 7.30

$$$$
>  <MOLECULE>
Cc1cc(NC(=O)[C@H](CCN)NC(=O)[C@@H]2Cc3ccccc3CN2C(=O)CCC(=O)N2CCC[C@@H]2CF)ccc1Cl [Compound 12-144]

>  <VAL>
> 7.30

$$$$
>  <MOLECULE>
NCC[C@H](NC(=O)[C@@H]1Cc2ccccc2CN1C(=O)CCC(=O)N1CCCCC1C1CCC1)C(=O)Nc1ccc(Cl)c(Cl)c1F (stereo partly shown) [Compound 15-22]

>  <VAL>
> 7.30

$$$$
>  <MOLECULE>
Cc1ccc(NC(=O)[C@H](CCCNC(=N)N)NC(=O)[C@@H]2Cc3ccccc3CN2C(=O)CCC(=O)c2ccccc2)cc1C [Compound 1-33]

>  <VAL>
> 7.30

$$$$
>  <MOLECULE>
Cc1cc(NC(=O)[C@H](CCN)NC(=O)[C@@H]2Cc3ccccc3CN2C(=O)CCC(=O)N2CC3CCCCC3C2)ccc1Cl (stereo partly shown) [Compound 12-55]

>  <VAL>
> 7.30

$$$$
>  <MOLECULE>
CCOc1cccc(C(=O)CCC(=O)N2Cc3ccccc3C[C@H]2C(=O)N[C@@H](CCCCN)C(=O)Nc2ccc(Cl)c(C)c2)c1 [Compound 7-7]

>  <VAL>
6.60 to 7.30

$$$$
>  <MOLECULE>
Cc1cc(NC(=O)[C@H](CCN)NC(=O)[C@@H]2Cc3ccccc3CN2C(=O)CCC(=O)c2ccccc2)c(OC(F)(F)F)cc1C [Compound 14-28]

>  <VAL>
> 7.30

$$$$
>  <MOLECULE>
NCCCC[C@H](NC(=O)[C@@H]1Cc2ccccc2CN1C(=O)CCC(=O)c1ccccc1)C(=O)Nc1ccc(Cl)c(Cl)c1 [Compound 1-1]

>  <VAL>
6.60 to 7.30

$$$$
>  <MOLECULE>
Cc1cc(NC(=O)[C@H](CCN)NC(=O)[C@@H]2Cc3ccccc3CN2C(=O)CCC(=O)N2CCN(C(=O)N(C)C)CC2)ccc1Cl [Compound 12-109]

>  <VAL>
6.30 to 6.60

$$$$
>  <MOLECULE>
COc1c(NC(=O)[C@H](CCN)NC(=O)[C@@H]2Cc3ccccc3CN2C(=O)CCC(=O)c2ccccc2)ccc(Cl)c1Cl [Compound 14-27]

>  <VAL>
< 6.30

$$$$
>  <MOLECULE>
Cc1c(NC(=O)[C@H](CCCCN)NC(=O)[C@@H]2Cc3ccccc3CN2C(=O)CCC(=O)c2ccccc2)ccc(Cl)c1Cl [Compound 1-25]

>  <VAL>
> 7.30

$$$$
>  <MOLECULE>
Cc1cc(NC(=O)[C@H](CCN)NC(=O)[C@@H]2Cc3ccccc3CN2C(=O)CCC(=O)NCC2CCCC2)ccc1Cl [Compound 12-10]

>  <VAL>
6.60 to 7.30

$$$$
>  <MOLECULE>
Cc1cc(NC(=O)[C@H](CCN)NC(=O)[C@@H]2Cc3ccccc3CN2C(=O)CCC(=O)N2CC(C(C)(C)C)C2)ccc1Cl [Compound 12-40]

>  <VAL>
> 7.30

$$$$
>  <MOLECULE>
CN(C(=O)CCC(=O)N1Cc2ccccc2C[C@H]1C(=O)NC1(C(=O)Nc2ccc(Cl)c(Cl)c2F)CCNCC1)C(C)(C)C [Compound 12-125]

>  <VAL>
6.60 to 7.30

$$$$
>  <MOLECULE>
COc1cc2c(cc1NC(=O)[C@H](CCN)NC(=O)[C@@H]1Cc3ccccc3CN1C(=O)CCC(=O)c1ccccc1)CCC2 [Compound 1-39]

>  <VAL>
> 7.30

$$$$
>  <MOLECULE>
CC[C@@H]1CCCN1C(=O)CCC(=O)N1Cc2ccccc2C[C@H]1C(=O)N[C@@H](CCN)C(=O)Nc1ccc(Cl)c(C)c1 [Compound 12-65]

>  <VAL>
> 7.30

$$$$
>  <MOLECULE>
CN(C)[C@H]1CCN(C(=O)CCC(=O)N2Cc3ccccc3C[C@H]2C(=O)N[C@@H](CCN)C(=O)Nc2ccc(Cl)c(Cl)c2F)C1 [Compound 15-30]

>  <VAL>
6.60 to 7.30

$$$$
>  <MOLECULE>
Cc1cc(NC(=O)[C@H](CCCCN)NC(=O)[C@@H]2Cc3ccccc3CN2C(=O)CCC(=O)c2cccc(Cl)c2)ccc1Cl [Compound 7-2]

>  <VAL>
6.60 to 7.30

$$$$
